# method: protein stability index of a GFP-peptide fusion (yeast GPS) (PSI 1-4); higher = more stable; sorted into four equal gates, so the index is relative within each strain
# details: pdr5∆
In this section, each of the sequences is paired with its reported protein stability index.
Answer using only a numeral; do not append any unit.

[
  {
    "residue.string": "KNDTKILVLALEDLKDV [PRP8]",
    "protein stability index": 1.96
  },
  {
    "residue.string": "PNELSQILTVDPKTSLR [RPC82]",
    "protein stability index": 1.91
  },
  {
    "residue.string": "NRSAKNSKNDSANVELF [YCS4]",
    "protein stability index": 3.29
  },
  {
    "residue.string": "NQQAQARQQVAQQLRNQ [GAL11]",
    "protein stability index": 2.94
  },
  {
    "residue.string": "SVGTDPMPIITFLSEWG [RPB2]",
    "protein stability index": 1.99
  }
]

q: Param item = LNDTTEKSKALESEIAS [SMC2] ; retrieve measured protein stability index.
a: 3.34

q: Param item = IPSSKYAYMMNSQSPRG [YLR018C/POM34] ; retrieve measured protein stability index.
a: 2.69

q: Param item = DEIYIPINGNEAESQWY [CSI1] ; retrieve measured protein stability index.
a: 3.13

q: Param item = IFNGETLEDALRRIITD [GRR1] ; retrieve measured protein stability index.
a: 1.96

q: Param item = EIARQMRDKSFGRTLAS [RPL12A] ; retrieve measured protein stability index.
a: 3.07

q: Param item = SNLAATKSMVKIAEQYS [RPN11] ; retrieve measured protein stability index.
a: 2.73

q: Param item = HSKFRSSSGNTWSLILN [YML031W/NDC1] ; retrieve measured protein stability index.
a: 2.72

q: Param item = TAASEARKHKLKTLVQG [RPS27A] ; retrieve measured protein stability index.
a: 2.75

----------
# method: protein stability index of a GFP-peptide fusion (yeast GPS) (PSI 1-4); higher = more stable; sorted into four equal gates, so the index is relative within each strain
# details: pdr5∆
measured.metric: protein stability index
Answer using only a numeral; do not append any unit.

Known protein stability index results, listed for orientation:
[
  {
    "residue.string": "CLTKFQDEEQTEHLTEL [YCG1]",
    "protein stability index": 3
  },
  {
    "residue.string": "AIVVGWRAIIKAIFPNT [FAS1]",
    "protein stability index": 2.71
  },
  {
    "residue.string": "TGISQKSMSILNSFVND [HTB1]",
    "protein stability index": 2.94
  },
  {
    "residue.string": "PSLEVASEYIETLGLKY [FAS1]",
    "protein stability index": 3.3
  }
]

q: Param item = AVVFKPFKGEVVDGTVV [RPB7] ; retrieve measured protein stability index.
a: 3.03

q: Param item = HIHKHVKDEAFDDLLKP [RET1] ; retrieve measured protein stability index.
a: 3.4

q: Param item = SLHSNSFSLTVSKEQFL [YJL039C/NUP192] ; retrieve measured protein stability index.
a: 1.8

----------
# method: protein stability index of a GFP-peptide fusion (yeast GPS) (PSI 1-4); higher = more stable; sorted into four equal gates, so the index is relative within each strain
# details: san1∆
Cut-off 3 on protein stability index, inclusive. At or above means True; below means False.

Sample answers from the record:
[
  {
    "residue.string": "MFIEEPTRMVRVAKGSG [SRP54]",
    "category.label": "False"
  },
  {
    "residue.string": "LITVMEKSPDPTIRSNA [YCS4]",
    "category.label": "False"
  },
  {
    "residue.string": "DGNNEIFTCQIMNLITN [RPN4]",
    "category.label": "False"
  },
  {
    "residue.string": "TAEAPTLSFNFSQKANK [YOR098C/NUP1]",
    "category.label": "True"
  },
  {
    "residue.string": "DEDESQNIAQSSNQSAP [HRT1]",
    "category.label": "True"
  },
  {
    "residue.string": "RSCVSNSNENGTLERIK [RPN4]",
    "category.label": "False"
  },
  {
    "residue.string": "DSRLSRKQIDETQVLVS [BRR2]",
    "category.label": "False"
  },
  {
    "residue.string": "LLVGLIKTFYWLEQFLS [NUT1]",
    "category.label": "False"
  },
  {
    "residue.string": "DDDDDDDDEVDYSEIQR [DSN1]",
    "category.label": "True"
  },
  {
    "residue.string": "KETWLHELSSSHTSLVK [SRB8]",
    "category.label": "False"
  }
]

q: Does KNIAQCLSDYTKKISNF [YJL039C/NUP192] have a reported protein stability index of at least 3?
a: False

q: Does EKPLILADYIVEVLLVN [NUT1] have a reported protein stability index of at least 3?
a: False

q: Does SARGSYLRVSFKNTRET [RPL17A] have a reported protein stability index of at least 3?
a: False

q: Does DKFSPEDGLGPLMAKSV [ARP7] have a reported protein stability index of at least 3?
a: False

q: Does VGGHNVTIREQINIMPS [SIR3] have a reported protein stability index of at least 3?
a: False

q: Does DGIVVKNAVVRSKFGGD [ARP7] have a reported protein stability index of at least 3?
a: True

q: Does YIELLPNADDIRDSIPQ [DIS3] have a reported protein stability index of at least 3?
a: False

q: Does VMSIESLVEVVFYRGMT [FAS1] have a reported protein stability index of at least 3?
a: False

q: Does YKVEHPFFARFKLRIQT [RPB11] have a reported protein stability index of at least 3?
a: False

q: Does EIEVDEMEVDAEGEEVE [RPN1] have a reported protein stability index of at least 3?
a: True

q: Does DMPCDVLAKRMANLSQI [SCL1] have a reported protein stability index of at least 3?
a: False

q: Does AASKVKLEEESKRGNDK [RPC53] have a reported protein stability index of at least 3?
a: True

q: Does ENESTNYQYKIQELRKL [MED7] have a reported protein stability index of at least 3?
a: False

q: Does NVSNTFNKTTNIDINNE [YJL041W/NSP1] have a reported protein stability index of at least 3?
a: False

q: Does EDEMMHEEDQKTNIIEK [RPN12] have a reported protein stability index of at least 3?
a: False

----------
# method: protein stability index of a GFP-peptide fusion (yeast GPS) (PSI 1-4); higher = more stable; sorted into four equal gates, so the index is relative within each strain
# details: ubr1∆
Cut-off 3 on protein stability index, inclusive. At or above means MET; below means NOT MET.

[
  {
    "residue.string": "GDLLNAEVQSLFQDGSA [RRP4]",
    "category.label": "NOT MET"
  },
  {
    "residue.string": "AKNKSTRINGLNSNNSI [REC8]",
    "category.label": "MET"
  },
  {
    "residue.string": "ELDTASRILKAQSRNVE [YGR119C/NUP57]",
    "category.label": "NOT MET"
  }
]

q: Does KKRFDEFMAGFNIISMT [SMC4] have a reported protein stability index of at least 3?
a: NOT MET

q: Does SAGKGISSSAIPYSRNA [RPS13] have a reported protein stability index of at least 3?
a: NOT MET

q: Does AEEKREAVIDEKLEVIA [ITC1] have a reported protein stability index of at least 3?
a: MET

q: Does DITTSIMDNFLERTAIE [RPN1] have a reported protein stability index of at least 3?
a: MET

q: Does NHNGSALLIEVFTALLR [ITC1] have a reported protein stability index of at least 3?
a: NOT MET

q: Does NVDQTKTQCPNYDTCGG [RPC11] have a reported protein stability index of at least 3?
a: MET

q: Does KIIELMNKIFTIFKSGE [YML103C/NUP188] have a reported protein stability index of at least 3?
a: NOT MET

----------
# method: protein stability index of a GFP-peptide fusion (yeast GPS) (PSI 1-4); higher = more stable; sorted into four equal gates, so the index is relative within each strain
# details: san1∆
Cut-off 3 on protein stability index, inclusive. At or above means label 1; below means label 0.

Sample answers from the record:
[
  {
    "residue.string": "LGLFIHKISFSGTKSEV [YJL039C/NUP192]",
    "category.label": "label 0"
  },
  {
    "residue.string": "QGTNSVPNSIGNIFSNI [SNF5]",
    "category.label": "label 1"
  }
]

q: Does IRYNSVEIQEVPRTADR [RPC82] have a reported protein stability index of at least 3?
a: label 0

q: Does SRKRKPKSASNTSSKRQ [IRR1] have a reported protein stability index of at least 3?
a: label 0

q: Does KEDSTIQDSNGDVKNME [SWI3] have a reported protein stability index of at least 3?
a: label 0

q: Does ITRFGLSKMRDSVLQLA [RPO31] have a reported protein stability index of at least 3?
a: label 1
